TGI for assorted compounds
Tested on: MOLT-4 leukemia
Assay Procedure: NCI tumour cell line growth inhibition, 48 h
Report the value in µM with no unit label.

Given the compound COc1cc(-c2nn(-c3ccc(NC(=O)NCCNS(=O)(=O)c4ccc(F)cc4)cc3)cc2-c2ccncc2)ccc1Cl , what is its reported TGI?
3.99

GET /values?readout=TGI&item= N#CC1=C(N)OC2=C(CCCc3ccccc32)C1c1ccc([N+](=O)[O-])cc1 (stereo not given)
1.64

* * *

Tested on: OVCAR-4 ovarian
Assay Procedure: NCI tumour cell line growth inhibition, 48 h
Parameter Measured: TGI

INSERT INTO assay_data (compound, target_or_test_system, result) VALUES
  ('C[N+]1([O-])CCC(O)(C2CC2)CC1 (configuration not stated)', 'OVCAR-4 ovarian', '> 100 µM'),
  ('C(CCCCc1nnc(N2CCOCC2)o1)CCCc1nnc(N2CCOCC2)o1', 'OVCAR-4 ovarian', '> 100 µM'),
  ('OC1CCCCCCCCCCC1SCCCCl (configuration not stated)', 'OVCAR-4 ovarian', '> 100 µM'),
  ('COC(=O)/C=C/CC(=O)NS(C)(=O)=O', 'OVCAR-4 ovarian', '> 10 µM'),
  ('N#Cc1cnc(=O)n(C2CC(O)C(CO)O2)c1 (configuration not stated)', 'OVCAR-4 ovarian', '> 100 µM'),
  ('O=C1OC(c2ccccc2)=N/C1=C\c1ccc(Br)cc1', 'OVCAR-4 ovarian', '> 100 µM'),
  ('CC(=O)OC(C)(C)C1O[C@@]23OC1C[C@@H](C)[C@@H]2[C@@]1(C)CC[C@@]24C[C@@]25CC[C@H](OC2OCC(O)C(O)C2O)C(C)(C)[C@@H]5CCC4[C@]1(C)[C@H]3O (some centres not stated)', 'OVCAR-4 ovarian', '23.8 µM'),
  ('COc1ccc2cc1Oc1ccc(cc1)CC1c3cc(OC)c(cc3CCN1C)Oc1c(OC)c(OC)cc3c1C(C2)N(C)CC3 (configuration not stated)', 'OVCAR-4 ovarian', '24.4 µM'),
  ('COc1ccc2c(c1)O/C(=C\c1ncc([N+](=O)[O-])n1C)C2=O', 'OVCAR-4 ovarian', '> 100 µM'),
  ('C=Cc1c(C)c(O)cc2c1-c1ccc(O)c(C)c1CC2', 'OVCAR-4 ovarian', '92 µM');

# input compound: Cc1nc2c(o1)C(=Nc1ccccc1)c1ccccc1C2=Nc1ccccc1 ; wanted: its TGI
> 100 µM

Value lookup for TGI; key = Nc1nc(N)c2ncn(-c3ccc(Br)cc3)c2n1
> 100 µM
